System: MS2 coat protein
Procedure Details: apparent KD of MS2 coat protein; higher = weaker reporter binding
Condition Parameters: Eterna round: R107; input ligand: arginine 13.2 mM
The label depends only on apparent KD of MS2 coat protein: criterion met if it is at least 0.06 µM, criterion not met if it is smaller.

| Sequence Chain | Class Name |
| --- | --- |
| AGCCACUCGAGUGAUCCUCACGAGUGGCAACGAGGACCGGUACGGCCGCCACUCGAAUAAACAUGAGGAUCACCCAUGUAAUAAU [T''-M-T'-T-MS2] | criterion not met |
| CACGGACGAGUGGAUCACCCUUGUAAUAACCGAGGACCGGUACGGCCGCCACUCGAAAACCGUGACCUGUACGAAAAGUGCAGGA | criterion not met |
| AGACGAGAAGAGGAUUACCCAUGUACAGAAGGAGCGUCGUUGACGACAGGUAGGUCGCUGAGAACAUGAGGAUCACCCAUGUUGA [Arg A Ex t1] | criterion not met |
| CCUAUCCAGUCGGCCGCCACUGAAAACAGUGGGUGAACAUGAGGAUCACCCAUGUAGGAUUUCCACAGGACCGGGACUGUAUAGG [Ex Tryptophan B 24] | criterion met |
| GAUCUGUCGGGUGAUACCAGCCUCGGCACAUCUCGUGCCGAACAUGAGGAUCACCCAUGUGGCCCUUGGCAGCACAUGACAAAUC [Regebece] | criterion met |

Q: Does apparent KD of MS2 coat protein meet or surpass 0.06 µM for UGACAUUGCUCAGAUACCAGACAUGAGGAUCACCCAUGUGCCAAAUACGUACAAAUAAAUGUCCCUUGGCAGCUGAGCAAUGUCU [TheoBX 12 #MS2Left #Theo2] ?
A: criterion not met

Q: Does apparent KD of MS2 coat protein meet or surpass 0.06 µM for AGCUCGACUCGCAGCUGGAUGCCCGCUUGCCGAGGACCGGUACGGCCGCCACUCGUCACUCGACAUGAGGAUCACCCAUGUGAUA [theeternabot_exclusion_MS2_Trp_A_32] ?
A: criterion not met

====

Tested on: K4 kissing-loop RNA reporter
Procedure Details: apparent KD of K4 kissing-loop reporter; higher = weaker reporter binding
Condition Parameters: Eterna round: R107; input ligand: theophylline 20 uM
Assay Readout: apparent KD of K4 kissing-loop reporter (nM)
Report the figure in nM without appending any unit label.

| Sequence Chain | Experimental Target | apparent KD of K4 kissing-loop reporter / nM |
| --- | --- | --- |
| CGCAGUGAUGUUGCGAGUAGCUACAGGGAAGGAGCGCUCUAGUGAGCAGGUAGGUCGCCCACGCAGUGAUGUUGCGUCAUAGGGU [Exclusion Arg A GF9] | K4 kissing-loop RNA reporter | 113 |
| UCCUGCAAUCGACCACGAAAGUGGAUCGAUACCAGAGUCGAAAGACUCCCUUGGCAGCGAGUGAUGUUCGAAGCAGGUAAAUAAA [#SwitchBubble 22 #K4Late] | K4 kissing-loop RNA reporter | 464 |

Note: attention shifts to another entry.
Q: Recorded apparent KD of K4 kissing-loop reporter for UUAGAGAUCUCAGGAUAUCAGUGAUGUUGGUGUGCAGAUCUGAGAUAGAAUUCUAUCUCAGAUCAAUGAGAAGGGAGAUCUCAUU [AK5 Exc FMN B] with K4 kissing-loop RNA reporter, please?
A: 173

====

Test system: K4 kissing-loop RNA reporter
Procedure Details: apparent KD of K4 kissing-loop reporter; higher = weaker reporter binding
Condition Parameters: Eterna round: R107; input ligand: theophylline 20 uM
// reported apparent KD of K4 kissing-loop reporter for each item listed
Provide the measurement as a number trailed by its unit.

See these solved cases before continuing.
| Sequence Chain | Experimental Target | Experimental Result |
| --- | --- | --- |
| UGUCAUUGGUCGGCCGCCACUUCAUAGAGAGUGAUGUUCUUUAAGACGGAUCGAAAGAUCUGUCGAAGGACCGGGACCGAUGACU [FiskerMod 10 - Jieux - Same State - Tryptophan B] | K4 kissing-loop RNA reporter | 777 nM |
| UGUACCGAGUCAGGAUAUGUCGUCGAAAGACGAAUCCUAGUGAUGUUAGGGAUCUGCGAAAGCAGUGCAGAAGGGACUUGGUACU [FmnBS 26 U20+G67] | K4 kissing-loop RNA reporter | 226 nM |
| UUGCCUCUGGCUGAUACCAGUGAUGCAGGGUAUGAAACAGGGAGUGAUGUUCCCUGCAGCCACCCUUGGCAGCAGUUUAAGUUUG [Exclusion Theophylline B GF 21] | K4 kissing-loop RNA reporter | 158 nM |
| AUUUAGACGAGUGAUGUUCGUGUUAUUACAGAGGAUAUGCGUAAAAGCAGAAGGCUGUAUUUAUAUUUGUUAUGUAAUUUUAAAA [JR_ExcFMNA_Sub006] | K4 kissing-loop RNA reporter | 94 nM |
| UAGGAGUGAUGUUCCAUAUCUUGAGCCGAAGGAGCGGCAUUAUAGCCAGGUAGGUCGCGGCAGAAGGUACCAGUGAUGUUGGAAA [Same State Arginine A GF5] | K4 kissing-loop RNA reporter | 202 nM |

Note: attention shifts to another entry.
Q: What value of apparent KD of K4 kissing-loop reporter has been reported for the following sequence? UGUAUCAUCUAAGGAUAUAUCAUGUGAUGCACCGAGUAUCGCAUCAAUUCUGAGUGAUGUUCAGGUAUAGAAGGUAGAUGAUGCA [FMN B SS t2]
A: 259 nM

====

Test system: MS2 coat protein
Procedure Details: apparent KD of MS2 coat protein; designed switch direction (-1 OFF switch, 1 ON switch): -1; higher = weaker reporter binding
Condition Parameters: input ligand: FMN 200 uM
The label depends only on apparent KD of MS2 coat protein: label 1 if it is at least 70 nM, label 0 if it is smaller.

Q: Does apparent KD of MS2 coat protein meet or surpass 70 nM for GAAAACGCAGAGGAUAUUUCAGAUCCUAGCUGCAAAGAAGGCUGCACAUGAGGAUCACCCAUGUGGUCCUGAAA [Quesina mod] (Eterna round: R97, puzzle: Exclusion 6) ?
A: label 1

====

Tested on: K4 kissing-loop RNA reporter;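 also: bound reporter read as fluorescence of individual clusters on recovered sequencing chips by microscopy, with normalized cluster intensities fitted with a binding model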
Procedure Details: apparent KD of K4 kissing-loop reporter; higher = weaker reporter binding
Condition Parameters: Eterna round: R107; input ligand: none
// reported apparent KD of K4 kissing-loop reporter for each item listed

See these solved cases before continuing.
| Sequence Chain | Assay Readout | Experimental Result |
| --- | --- | --- |
| GCUAUGGUAGGAAGGAGCGCGGACGAUAUUUAUCGAGUGAUGUUCGAUUAAUUAAUUUUAACGCAGGUAGGUCGCCUACUAUAGC [Arginine B K4 28] | apparent KD of K4 kissing-loop reporter | 105 nM |
| GGAUAGGACAGAGGAUAUGGUAGUGAUGUUACCAAACUGGUUACUCUUGUCAGAAAACUGGCAUUUCCAGAAGGCUGUCCUAUCG [KL-XFMN-B11] | apparent KD of K4 kissing-loop reporter | 92.2 nM |
| AAACGUUGGUCGGAUACCAGCUUGAUCGGAAAACGAUCUGCUGGAGUGAUGUUCCAAUAAAGCCCUUGGCAGCCGACCGACGAAA [MAT - Same State Theophlline B - Mod of Eli - D15] | apparent KD of K4 kissing-loop reporter | 1030 nM |

Q: What value of apparent KD of K4 kissing-loop reporter has been reported for the following sequence? UGUACCGAGUCAGGAUAUCAUAAAGUUGGAGUGAUGUUCCAAUAACGACUGACAAAGUCGGUCGAUUGAGAAGGGACUUGGUACU [FmnBS 9 #SwitchBubble #StaticStem]
A: 141 nM

Q: What value of apparent KD of K4 kissing-loop reporter has been reported for the following sequence? GUUACGCAUGGAAGGAGCGCGAUUAAAUUUAGUGAGUGAUGUUCACAAAAUAAAACUAAAACGCAGGUAGGUCGCCAUGUGUAAC [Ex Arginine B K4 2]
A: 188 nM

Q: What value of apparent KD of K4 kissing-loop reporter has been reported for the following sequence? CGCAAAUCGUCGGCCGCCACUGCAUUUGAACGCUAAUUGUCUCUGCGCGGAGUGAUGUUCUGUGCCAGGACCGGGACGGAUUUCG [theeternabot_exclusion_KL_Trp_B_21]
A: 517 nM

====

System: MS2 coat protein
Procedure Details: apparent KD of MS2 coat protein; designed switch direction (-1 OFF switch, 1 ON switch): 1; higher = weaker reporter binding
Condition Parameters: input ligand: microRNA oligo, concentration not stated
Assay Readout: apparent KD of MS2 coat protein (nM)
Report the figure in nM without appending any unit label.

See these solved cases before continuing.
| Sequence Chain | Measurement Unit | apparent KD of MS2 coat protein |
| --- | --- | --- |
| AUUAUUUAUGCAGGAUAUGAUUAACAUGAGGAUCACCCAUGUGGUGUUGUGAGUAAGGAGAGUGAUCAGAAGGGCAUUUUUUCU [JMF's solution 55] (Eterna round: R96, puzzle: Same State NG 2) | nM | 361 |
| AAGCUGUGUGUAUGGUCAUUGUCAACGGUACAUGAGGAUCACCCAUGUAGCAUUAACCAUCCGACUCUGUUGGAGGU [high scoring solution 6] (Eterna round: R96, puzzle: Sensor for hsa-mir-208a) | nM | 40.7 |
| CGUAGGAUAUGCAGAGGAUCACCCUGUAGAAGGACGAUUACGUAGGAUAUGCAGAGGAUCACCCUGUAGAAGGACGACUAAUCU [pwkr ssNG3 DX 2xF5 +2xFMN.2] (Eterna round: R96, puzzle: Same State NG 3) | nM | 105 |

Note: attention shifts to another entry.
Q: What value of apparent KD of MS2 coat protein has been reported for the following sequence? UUAAUGAUGAUAGGAUAUACAUGAGGAAUCCUCGUAGAAGGAUCAUGACAUGAGGAUCACCCAUGUAACGCUCCGUAGAGCGUA [JL SSNG1 1.16] (Eterna round: R96, puzzle: Same State NG 1)
A: 94
